# IC50 listing for each entry below
Biological target: human PD-L1 (hPD-L1) coated on ELISA wells, Example 7 (human, UniProt Q9NZQ7 19-238)
Sequence (Q9NZQ7 19-238): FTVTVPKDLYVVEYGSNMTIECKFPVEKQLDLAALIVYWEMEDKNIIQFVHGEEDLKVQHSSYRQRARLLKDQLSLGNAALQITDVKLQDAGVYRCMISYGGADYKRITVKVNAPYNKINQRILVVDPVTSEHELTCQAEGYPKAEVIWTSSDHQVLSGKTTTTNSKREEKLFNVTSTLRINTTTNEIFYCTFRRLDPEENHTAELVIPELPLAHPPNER
Experiment: Blocking ELISA

See these solved cases before continuing.
# Binder, IC50
rows = [
    ("752-hIgG1 (chimeric PAL752) (antibody, V domains shown) VH: EVQLQESGAELARPGASVKLSCKASGHAFTSDSINWVKQRIGQGLEWIGEIYPRSGNPYYNEKFKGKATLTADKSSSTAYMELRSLTSEDSAVYFCATDYYGRYFDVWGTGTTVTVSS VL: DIQMTQSSFSFSVSLGDRVTIICKASEDIYNRLAWYQQKPGNTPRLLISGATSLETGVPSRFSGSGSGKDYTLSITSLQTEDVATYYCQQYWSTPWTFGGGTKLEIK", "4.64 nM"),
    ("785-hIgG1 (chimeric PAL785) (antibody, V domains shown) VH: EVQLQESGPELVKPGTSVKMSCKASGYTFTSYVMHWVKQRPGQGLEWIGYINPYNDGSKYNEKFKGKATLTSDTSSSTAYMELSSLTSEDSAVYYCAKQTLDFWGQGTSVTVST VL: DIVLTQSPASLAVSLGQRATISCRASESVEFYGTTLMQWYQQKPGQPPKLLIYAASNVESGVPARFSGSGSGTDFSLNIHPVEEGDIGMYFCQQSRKVPYTFGGGTKLEIK", "1.94 nM"),
    ("788-hIgG1 (chimeric PAL788) (antibody, V domains shown) VH: QVQLQQPGAELVKPGASVKLSCKASGYTFTSNWMNWVKQRPGRGLEWIGRIHPSDSETHYHQKFKSKATLTVDKSSSTAYIQLSSLTSEDSAVYYCAHSSGDYGRDYWGQGTTLTVSS VL: NIVLTQSPASLAVSLGQRATISCRASESVDSYGNSFMHWYQQKPGQPPKLLIYLASNLQSGVPARFSGSGSRTDFTLTIDPVEADDAATYYCQQNNEDPWTFGGGTKLEIK", "2.93 nM"),
]

Please look at the following binder next.
Q: Name the recorded IC50 of the item 769-hIgG1 (chimeric PAL769) (antibody, V domains shown) VH: EVQLQESGAELVKPGASVTLSCTASGFNIKDTYMHWVKQRPEQGLEWIGRIDPANDNTKYDPKFQDKATITADTSSDTAYLRLSSLTSEDTAVYYCAREGYGGSYGEGYWGQGTTLTVSS VL: SIVMTQTPKFLLVSAGDRVTITCKASQSVSNDVIWYQQKPGQSPKLLIYYASIRFTGVPDRFAGSGYGTDFTFTINTVQAEDLAVYFCQQDYNSPWTFGGGTKLEIK in your answer.
A: 1.58 nM
